Origin of the recorded values: paper PMC6001238

Test system: E. faecalis VRE 53
Experiment: MIC, broth microdilution, vancomycin-resistant E. faecalis VRE 53 (VanA)
Assay type: cell-based, Enterococcus faecalis
Conditions: VRE 53; ratio of MIC of vancomycin and MIC of analogue
Each record is given t if its reported MIC-fold improvement vs. vancomycin is strictly below 30. Records at or above 30 are given f.

[Q] Consider C#Cc1ccc(NC(=O)CNC(=O)C2NC(=O)C3NC(=O)C(NC(=O)C4NC(=O)C(CC(N)=O)NC(=O)C(NC(=O)C(CC(C)C)NC)C(O)c5ccc(c(Cl)c5)Oc5cc4cc(c5OC4OC(CO)C(O)C(O)C4OC4CC(C)(N)C(O)C(C)O4)Oc4ccc(cc4Cl)C3O)c3ccc(O)c(c3)-c3c(O)cc(O)cc32)cc1 (stereo not drawn) . Does its MIC-fold improvement vs. vancomycin lie strictly below 30?
[A] f

[Q] Consider CNC(CC(C)C)C(=O)NC1C(=O)NC(CC(N)=O)C(=O)NC2C(=O)NC3C(=O)NC(C(=O)NC(C(=O)NCC(=O)Nc4ccc(C(=O)NCCCN(C)C)cc4)c4cc(O)cc(O)c4-c4cc3ccc4O)C(O)c3ccc(c(Cl)c3)Oc3cc2cc(c3OC2OC(CO)C(O)C(O)C2OC2CC(C)(N)C(O)C(C)O2)Oc2ccc(cc2Cl)C1O (stereo not drawn) . Does its MIC-fold improvement vs. vancomycin lie strictly below 30?
[A] t

[Q] Consider CNC(CC(C)C)C(=O)NC1C(=O)NC(CC(N)=O)C(=O)NC2C(=O)NC3C(=O)NC(C(=O)NC(C(=O)NCC(=O)Nc4ccc(C=Cc5ccc(N)cc5)cc4)c4cc(O)cc(O)c4-c4cc3ccc4O)C(O)c3ccc(c(Cl)c3)Oc3cc2cc(c3OC2OC(CO)C(O)C(O)C2OC2CC(C)(N)C(O)C(C)O2)Oc2ccc(cc2Cl)C1O (stereo not drawn) . Does its MIC-fold improvement vs. vancomycin lie strictly below 30?
[A] t

[Q] Consider CNC(CC(C)C)C(=O)NC1C(=O)NC(CC(N)=O)C(=O)NC2C(=O)NC3C(=O)NC(C(=O)NC(C(=O)NCC(=O)Nc4ccc(-c5cn(-c6ccc(OC)cc6)nn5)cc4)c4cc(O)cc(O)c4-c4cc3ccc4O)C(O)c3ccc(c(Cl)c3)Oc3cc2cc(c3OC2OC(CO)C(O)C(O)C2OC2CC(C)(N)C(O)C(C)O2)Oc2ccc(cc2Cl)C1O (stereo not drawn) . Does its MIC-fold improvement vs. vancomycin lie strictly below 30?
[A] f

[Q] Consider CN[C@H](CC(C)C)C(=O)N[C@H]1C(=O)N[C@@H](CC(N)=O)C(=O)N[C@H]2C(=O)N[C@H]3C(=O)N[C@H](C(=O)N[C@H](C(=O)NCCNC(=O)/C=C/c4ccc(Cl)cc4)c4cc(O)cc(O)c4-c4cc3ccc4O)[C@H](O)c3ccc(c(Cl)c3)Oc3cc2cc(c3O[C@@H]2O[C@H](CO)[C@@H](O)[C@H](O)[C@H]2O[C@H]2C[C@](C)(N)[C@H](O)[C@H](C)O2)Oc2ccc(cc2Cl)[C@H]1O . Does its MIC-fold improvement vs. vancomycin lie strictly below 30?
[A] f

[Q] Consider CNC(CC(C)C)C(=O)NC1C(=O)NC(CC(N)=O)C(=O)NC2C(=O)NC3C(=O)NC(C(=O)NC(C(=O)NCC(=O)Nc4ccc(-c5ccc(OC)cc5)cc4)c4cc(O)cc(O)c4-c4cc3ccc4O)C(O)c3ccc(c(Cl)c3)Oc3cc2cc(c3OC2OC(CO)C(O)C(O)C2OC2CC(C)(N)C(O)C(C)O2)Oc2ccc(cc2Cl)C1O (stereo not drawn) . Does its MIC-fold improvement vs. vancomycin lie strictly below 30?
[A] f

[Q] Consider CN[C@H](CC(C)C)C(=O)N[C@H]1C(=O)N[C@@H](CC(N)=O)C(=O)N[C@H]2C(=O)N[C@H]3C(=O)N[C@H](C(=O)N[C@H](C(=O)NCC(=O)Nc4ccc5c(c4)Cc4ccccc4-5)c4cc(O)cc(O)c4-c4cc3ccc4O)[C@H](O)c3ccc(c(Cl)c3)Oc3cc2cc(c3O[C@@H]2O[C@H](CO)[C@@H](O)[C@H](O)[C@H]2O[C@H]2C[C@](C)(N)[C@H](O)[C@H](C)O2)Oc2ccc(cc2Cl)[C@H]1O . Does its MIC-fold improvement vs. vancomycin lie strictly below 30?
[A] f

[Q] Consider CN[C@H](CC(C)C)C(=O)N[C@H]1C(=O)N[C@@H](CC(N)=O)C(=O)N[C@H]2C(=O)N[C@H]3C(=O)N[C@H](C(=O)N[C@H](C(=O)NCCNC(=O)/C=C/c4ccc(F)cc4)c4cc(O)cc(O)c4-c4cc3ccc4O)[C@H](O)c3ccc(c(Cl)c3)Oc3cc2cc(c3O[C@@H]2O[C@H](CO)[C@@H](O)[C@H](O)[C@H]2O[C@H]2C[C@](C)(N)[C@H](O)[C@H](C)O2)Oc2ccc(cc2Cl)[C@H]1O . Does its MIC-fold improvement vs. vancomycin lie strictly below 30?
[A] t

[Q] Consider CN[C@H](CC(C)C)C(=O)N[C@H]1C(=O)N[C@@H](CC(N)=O)C(=O)N[C@H]2C(=O)N[C@H]3C(=O)N[C@H](C(=O)N[C@H](C(=O)NCC(=O)Nc4ccc(Cl)cn4)c4cc(O)cc(O)c4-c4cc3ccc4O)[C@H](O)c3ccc(c(Cl)c3)Oc3cc2cc(c3O[C@@H]2O[C@H](CO)[C@@H](O)[C@H](O)[C@H]2O[C@H]2C[C@](C)(N)[C@H](O)[C@H](C)O2)Oc2ccc(cc2Cl)[C@H]1O . Does its MIC-fold improvement vs. vancomycin lie strictly below 30?
[A] t

[Q] Consider CN[C@H](CC(C)C)C(=O)N[C@H]1C(=O)N[C@@H](CC(N)=O)C(=O)N[C@H]2C(=O)N[C@H]3C(=O)N[C@H](C(=O)N[C@H](C(=O)NCC(=O)Nc4ccc(C(F)(F)F)cc4)c4cc(O)cc(O)c4-c4cc3ccc4O)[C@H](O)c3ccc(c(Cl)c3)Oc3cc2cc(c3O[C@@H]2O[C@H](CO)[C@@H](O)[C@H](O)[C@H]2O[C@H]2C[C@](C)(N)[C@H](O)[C@H](C)O2)Oc2ccc(cc2Cl)[C@H]1O . Does its MIC-fold improvement vs. vancomycin lie strictly below 30?
[A] t

[Q] Consider CNC(CC(C)C)C(=O)NC1C(=O)NC(CC(N)=O)C(=O)NC2C(=O)NC3C(=O)NC(C(=O)NC(C(=O)NCCCNC(=O)c4ccc5cc(O)ccc5c4)c4cc(O)cc(O)c4-c4cc3ccc4O)C(O)c3ccc(c(Cl)c3)Oc3cc2cc(c3OC2OC(CO)C(O)C(O)C2OC2CC(C)(N)C(O)C(C)O2)Oc2ccc(cc2Cl)C1O (stereo not drawn) . Does its MIC-fold improvement vs. vancomycin lie strictly below 30?
[A] t

[Q] Consider CN(C)c1cc(NC(=O)CNC(C)(C)C)c(O)c2c1C[C@H]1C[C@H]3[C@H](N(C)C)C(O)=C(C(N)=O)C(=O)[C@@]3(O)C(O)=C1C2=O [Tigecycline, reference compound] . Does its MIC-fold improvement vs. vancomycin lie strictly below 30?
[A] f

----------
Tested on: MRSA KS1
Assay: MIC, broth microdilution, MRSA KS1
Format: cell-based, Staphylococcus aureus
Settings: MRSA KS1; ratio of MIC of vancomycin and MIC of analogue
Kindly supply the reported MIC-fold improvement vs. vancomycin values for the records listed here.
Output spec: single numeric token, no unit.

[Q] For CNC(CC(C)C)C(=O)NC1C(=O)NC(CC(N)=O)C(=O)NC2C(=O)NC3C(=O)NC(C(=O)NC(C(=O)NCCCNC(=O)c4ccc5cc(NS(=O)(=O)c6ccc(C)cc6)ccc5c4)c4cc(O)cc(O)c4-c4cc3ccc4O)C(O)c3ccc(c(Cl)c3)Oc3cc2cc(c3OC2OC(CO)C(O)C(O)C2OC2CC(C)(N)C(O)C(C)O2)Oc2ccc(cc2Cl)C1O (stereo not drawn) , what is its reported MIC-fold improvement vs. vancomycin?
[A] 1

[Q] For CN[C@H](CC(C)C)C(=O)N[C@H]1C(=O)N[C@@H](CC(N)=O)C(=O)N[C@H]2C(=O)N[C@H]3C(=O)N[C@H](C(=O)N[C@H](C(=O)O)c4cc(O)cc(O)c4-c4cc3ccc4O)[C@H](O)c3ccc(c(Cl)c3)Oc3cc2cc(c3O[C@@H]2O[C@H](CO)[C@@H](O)[C@H](O)[C@H]2O[C@H]2C[C@](C)(N)[C@H](O)[C@H](C)O2)Oc2ccc(cc2Cl)[C@H]1O , what is its reported MIC-fold improvement vs. vancomycin?
[A] 1

[Q] For CN[C@H](CC(C)C)C(=O)N[C@H]1C(=O)N[C@@H](CC(N)=O)C(=O)N[C@H]2C(=O)N[C@H]3C(=O)N[C@H](C(=O)N[C@H](C(=O)NCC(=O)Nc4ccc(OC)cc4)c4cc(O)cc(O)c4-c4cc3ccc4O)[C@H](O)c3ccc(c(Cl)c3)Oc3cc2cc(c3O[C@@H]2O[C@H](CO)[C@@H](O)[C@H](O)[C@H]2O[C@H]2C[C@](C)(N)[C@H](O)[C@H](C)O2)Oc2ccc(cc2Cl)[C@H]1O , what is its reported MIC-fold improvement vs. vancomycin?
[A] 1

[Q] For CNC(CC(C)C)C(=O)NC1C(=O)NC(CC(N)=O)C(=O)NC2C(=O)NC3C(=O)NC(C(=O)NC(C(=O)NCC(=O)Nc4ccc(-c5ccc(OC)cc5)cc4)c4cc(O)cc(O)c4-c4cc3ccc4O)C(O)c3ccc(c(Cl)c3)Oc3cc2cc(c3OC2OC(CO)C(O)C(O)C2OC2CC(C)(N)C(O)C(C)O2)Oc2ccc(cc2Cl)C1O (stereo not drawn) , what is its reported MIC-fold improvement vs. vancomycin?
[A] 8

[Q] For CN[C@H](CC(C)C)C(=O)N[C@H]1C(=O)N[C@@H](CC(N)=O)C(=O)N[C@H]2C(=O)N[C@H]3C(=O)N[C@H](C(=O)N[C@H](C(=O)NCCNC(=O)/C=C/c4ccc(OC)cc4)c4cc(O)cc(O)c4-c4cc3ccc4O)[C@H](O)c3ccc(c(Cl)c3)Oc3cc2cc(c3O[C@@H]2O[C@H](CO)[C@@H](O)[C@H](O)[C@H]2O[C@H]2C[C@](C)(N)[C@H](O)[C@H](C)O2)Oc2ccc(cc2Cl)[C@H]1O , what is its reported MIC-fold improvement vs. vancomycin?
[A] 1
